B1: Pistol ribozyme (parent)
chain: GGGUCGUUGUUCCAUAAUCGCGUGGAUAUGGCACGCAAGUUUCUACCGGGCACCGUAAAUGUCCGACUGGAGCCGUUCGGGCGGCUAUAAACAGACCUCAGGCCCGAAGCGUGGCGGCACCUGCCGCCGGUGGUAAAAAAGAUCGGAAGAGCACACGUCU

- Variants of: B1
- test.name: aptazyme ON/OFF ratio, guanine; higher = stronger switching; co-transcriptional cleavage with and without guanine
endpoint.label: aptazyme ON/OFF ratio

{"columns": ["variant.string", "quantitative.result"],
 "data": [
  ["U7C U8G G9U U10A U11G C13A", 1.13],
  ["U7A U8A G9A U10C U11C C13G", 0.997],
  ["U7G G9C U11C C12A", 2.21],
  ["U7C U8G U10A U11G", 1.35],
  ["U7A U8A G9C U10C U11G", 0.815],
  ["U7C G9U U10C U11C", 1.05],
  ["U7A U8C G9U U10A U11A C12G C13U", 1.34],
  ["U7A U8G G9U U10A U11A C12A C13A", 1.24],
  ["U7C U8G U11C C12G C13A", 1.15],
  ["U7A U8C G9C U10A U11C C12G C13U", 1.27],
  ["U7A U8G U11C C12U C13U", 1.36],
  ["U7A U8G G9A U10C U11G C13U", 1.25],
  ["U7G U8C G9C U10G C12U C13G", 1.08],
  ["U7C U8C G9C U10A U11A C13A", 1.13],
  ["U7G U8A G9C U10A U11G C12A C13G", 1.05],
  ["U7C G9A U10A C12A C13U", 1.05]
]}
